Recorded recovery at 6 h, 10000 ng/ml, one value per entry.
experiment: Stability of the studied drugs in rat plasma (freeze-thaw, bench-top, long-term), HPLC-DAD; type: in vitro ADME; conditions: rat plasma, 10,000 ng/ml, 6 h at room temperature, n = 3

| Sample smiles | recovery at 6 h, 10000 ng/ml |
| --- | --- |
| O=C(O)CSc1nnc(Br)n1-c1ccc(C2CC2)c2ccccc12 | 92.5% |
| COC(=O)[C@@H]1CC2=CC(=O)CC[C@]2(C)[C@@]23O[C@@H]2C[C@@]2(C)[C@@H](CC[C@@]24CCC(=O)O4)[C@H]13 | 96.8% |
| Cc1ccc(-c2ncc(Cl)cc2-c2ccc(S(C)(=O)=O)cc2)cn1 | 92.8% |

----------
assay: Drug interaction pharmacokinetic study of LES and ETC, single oral dose, plasma levels by HPLC-DAD; assay type: in vivo, Sprague-Dawley rats; conditions: male, Sprague-Dawley, plasma; LES 15 mg/Kg single oral dose alone (Day 0), rat, Mean ± SEM; read-out: Ke (converted)

| Sample smiles | k el [s⁻¹] |
| --- | --- |
| O=C(O)CSc1nnc(Br)n1-c1ccc(C2CC2)c2ccccc12 | 7.78e-05 |

----------
assay: Drug interaction pharmacokinetic study of LES and ETC, single oral dose, plasma levels by HPLC-DAD; format: in vivo, Sprague-Dawley rats; settings: male, Sprague-Dawley; ETC 5 mg/Kg single oral dose alone (Day 0), rat plasma, Mean ± SEM, n=5
Parameter measured: AUC (ng·h/mL)

| Sample smiles | Measurement |
| --- | --- |
| Cc1ccc(-c2ncc(Cl)cc2-c2ccc(S(C)(=O)=O)cc2)cn1 | 11200 |

----------
experiment: Stability of the studied drugs in rat plasma (freeze-thaw, bench-top, long-term), HPLC-DAD; format: in vitro ADME; settings: rat plasma, 1000 ng/ml, three cycles -20 °C / room temperature, n = 3
Parameter measured: recovery at 1000 ng/ml (%)

| Sample smiles | Units | Measurement |
| --- | --- | --- |
| COC(=O)[C@@H]1CC2=CC(=O)CC[C@]2(C)[C@@]23O[C@@H]2C[C@@]2(C)[C@@H](CC[C@@]24CCC(=O)O4)[C@H]13 | % | 91.9 |
| Cc1ccc(-c2ncc(Cl)cc2-c2ccc(S(C)(=O)=O)cc2)cn1 | % | 98 |
| O=C(O)CSc1nnc(Br)n1-c1ccc(C2CC2)c2ccccc12 | % | 91.6 |

----------
test: Stability of the studied drugs in rat plasma (freeze-thaw, bench-top, long-term), HPLC-DAD; assay type: in vitro ADME; settings: rat plasma, 25,000 ng/ml, 6 h at room temperature, n = 3
Parameter measured: recovery at 6 h, 25000 ng/ml (%)

| Sample smiles | Measurement |
| --- | --- |
| Cc1ccc(-c2ncc(Cl)cc2-c2ccc(S(C)(=O)=O)cc2)cn1 | 92.7 |
| O=C(O)CSc1nnc(Br)n1-c1ccc(C2CC2)c2ccccc12 | 96.1 |
| COC(=O)[C@@H]1CC2=CC(=O)CC[C@]2(C)[C@@]23O[C@@H]2C[C@@]2(C)[C@@H](CC[C@@]24CCC(=O)O4)[C@H]13 | 94.2 |

----------
test: Drug interaction pharmacokinetic study of LES and ETC, single oral dose, plasma levels by HPLC-DAD; format: in vivo, Sprague-Dawley rats; settings: male, Sprague-Dawley, plasma; ETC 5 mg/Kg single oral dose alone (Day 0), rat, one phase decay, Mean ± SEM

| Molecule | half-life / h |
| --- | --- |
| Cc1ccc(-c2ncc(Cl)cc2-c2ccc(S(C)(=O)=O)cc2)cn1 [ETC, etoricoxib] | 4.88 |
